# Test target: GRK6, recombinant full-length GST-tagged human protein (Homo sapiens)
# Construct: Enzyme: 20 nM GRK6, recombinant full-length GST-tagged human protein; GST
# Experiment summary: GRK6 assay, IC50 determination (8-point concentration-response)
# Assay type: biochemical
# Settings: Series 4 (Table 14); conditions as Example 18
Lab note: anything with IC50 below 10 µM is marked satisfied; values at 10 µM or higher are marked not satisfied.

Answered cases to consult:
{"columns": ["Compound", "Answer label"],
 "data": [
  ["COc1cncc(-c2nnc(SCC(=O)O)[nH]2)c1 [Compound 4-24]", "not satisfied"],
  ["CN(C)c1ncc(-c2nnc(SCC(=O)O)[nH]2)cn1 [Compound 4-17]", "satisfied"],
  ["CCc1nc(C)c(-c2nnc(SCC(=O)O)[nH]2)[nH]1 [Compound 4-36]", "not satisfied"],
  ["Cc1nc[nH]c1-c1nnc(SCC(=O)O)[nH]1 [Compound 4-50]", "not satisfied"],
  ["Cc1nc(-c2nnc(SCC(=O)O)[nH]2)c[nH]1 [Compound 4-52]", "not satisfied"]
]}

**Query** Problem: For the compound O=C(O)CSc1nnc(-c2cnc3ccccc3c2)[nH]1 [Compound 4-4] , is IC50 under 10 µM?
**Result** satisfied

**Query** Problem: For the compound O=C(O)CSc1nnc(-c2ccc3ccccc3n2)[nH]1 [Compound 4-25] , is IC50 under 10 µM?
**Result** not satisfied

###

# Test target: GRK6, recombinant full-length GST-tagged human protein (Homo sapiens, UniProt P43250)
# Construct: Enzyme: 20 nM GRK6, recombinant full-length GST-tagged human protein; GST
# Sequence (P43250 whole entry): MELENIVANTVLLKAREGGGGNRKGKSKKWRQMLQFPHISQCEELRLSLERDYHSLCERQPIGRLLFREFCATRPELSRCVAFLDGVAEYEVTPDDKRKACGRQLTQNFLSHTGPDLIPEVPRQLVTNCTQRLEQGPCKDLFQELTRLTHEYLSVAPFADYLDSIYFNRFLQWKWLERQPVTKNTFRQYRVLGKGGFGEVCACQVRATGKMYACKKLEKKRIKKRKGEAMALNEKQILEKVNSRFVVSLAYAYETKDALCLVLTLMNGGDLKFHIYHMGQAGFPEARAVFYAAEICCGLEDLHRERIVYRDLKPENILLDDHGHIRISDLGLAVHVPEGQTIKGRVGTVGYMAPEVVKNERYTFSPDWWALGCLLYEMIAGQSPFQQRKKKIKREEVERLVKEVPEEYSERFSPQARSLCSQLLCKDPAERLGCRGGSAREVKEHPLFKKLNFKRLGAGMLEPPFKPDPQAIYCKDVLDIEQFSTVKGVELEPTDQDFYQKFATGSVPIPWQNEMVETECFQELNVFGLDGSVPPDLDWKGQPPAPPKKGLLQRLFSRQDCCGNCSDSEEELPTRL
# Experiment summary: GRK6 assay, IC50 determination (8-point concentration-response)
# Type: biochemical
# Settings: Series 4 (Table 14); conditions as Example 18
# Description: The following assay conditions were used. Buffer: 50 mM TRIS-HCl, pH 7.5, 5 mM MgCl2, 2 mM DTT, 0.01% Triton X-100, 10 μM Na3VO4, 10 μM b-GP, 1% DMSO Enzyme: 20 nM GRK6, recombinant full-length GST-tagged human protein Peptide substrate (Peptide 216): 1 μM One hundred two compounds (1-1-1-102) were further characterized by determining IC50 values in a GRK6 assay. This screen has been previously described in WO 2013/063458, which is incorporated by reference in its entirety herein. […]
pIC50: −log10 of the molar value.
Could you please report measured pIC50 for the items listed next?

Example results:
{"columns": ["Structure smiles", "Assay value"],
 "data": [
  ["Cc1nc(C)c(-c2nnc(SCC(=O)O)[nH]2)s1", "< 4.00"],
  ["O=C(O)CSc1nnc(-c2ccc3cccnc3n2)[nH]1", "< 4.07"],
  ["COc1ccc2cc(-c3[nH]nc(SCC(=O)O)c3Br)ccc2c1", "< 4.00"],
  ["NC(=O)Cn1cc(-c2nnc(SCC(=O)O)[nH]2)c2ccccc21", "< 4.00"],
  ["Cc1ncsc1-c1nnc(SCC(=O)O)[nH]1", "< 4.00"]
]}

Next, consider the following molecule.
**Query** pIC50 for CC(C)(C)C(=O)Nc1ncccc1-c1nnc(SCC(=O)O)[nH]1 ?
**Result** < 4.19

###

# Test target: GRK6, recombinant full-length GST-tagged human protein (Homo sapiens, UniProt P43250)
# Construct: Enzyme: 20 nM GRK6, recombinant full-length GST-tagged human protein; GST
# Experiment summary: GRK6 assay, IC50 determination (8-point concentration-response)
# Assay type: biochemical
# Settings: Series 4 (Table 14); conditions as Example 18
pIC50: −log10 of the molar value.
Property measured: pIC50

Example results:
{"columns": ["Compound", "Property measured", "Assay value"],
 "data": [
  ["Cc1noc(C)c1-c1nnc(SCC(=O)O)[nH]1 [Compound 4-40]", "pIC50", "< 4.00"],
  ["Cc1nc(-c2nnc(SCC(=O)O)[nH]2)c2ccccn12 [Compound 4-46]", "pIC50", "< 4.10"]
]}

Next, consider the following compound.
**Query** // map O=C(O)CSc1nnc(-c2cccnc2N2CCOCC2)[nH]1 [Compound 4-41] to recorded pIC50 (system: GRK6, recombinant full-length GST-tagged human protein (Homo sapiens, UniProt P43250))
**Result** < 4.00

###

# Test target: GRK6, recombinant full-length GST-tagged human protein (Homo sapiens)
# Construct: Enzyme: 20 nM GRK6, recombinant full-length GST-tagged human protein; GST
# Experiment summary: GRK6 assay, IC50 determination (8-point concentration-response)
# Type: biochemical
# Settings: Series 3 (Table 13); conditions as Example 18
Property measured: IC50 (nM)
Numbers only, in nM.

Example results:
{"columns": ["Compound", "Property measured", "Assay value"],
 "data": [
  ["FC(F)(F)c1cc(-c2ccc(-c3nnc(SCc4nnn[nH]4)[nH]3)o2)cc2cccnc12 [Compound 3-4]", "IC50", 881],
  ["Fc1cc(F)cc(-c2ccc(-c3nnc(SCc4nnn[nH]4)[nH]3)o2)c1 [Compound 3-18]", "IC50", 3310],
  ["c1cc2ccc(-c3ccc(-c4nnc(SCc5nnn[nH]5)[nH]4)o3)cc2[nH]1 [Compound 3-12]", "IC50", 1580],
  ["c1cnc2ccc(-c3ccc(-c4nnc(SCc5nnn[nH]5)[nH]4)o3)cc2c1 [Compound 3-3]", "IC50", 667],
  ["CNS(=O)(=O)c1ccc(-c2ccc(-c3nnc(SCc4nnn[nH]4)[nH]3)o2)cc1 [Compound 3-22]", "IC50", 3780]
]}

Please go through the list and note IC50 for each compound.
1. c1ccc2cc(-c3ccc(-c4nnc(SCc5nnn[nH]5)[nH]4)o3)ccc2c1 [Compound 3-1]
2. Fc1cccc(-c2ccc(-c3nnc(SCc4nnn[nH]4)[nH]3)o2)c1 [Compound 3-27]

**Result**
442
5630

###

# Test target: GRK6, recombinant full-length GST-tagged human protein (Homo sapiens, UniProt P43250)
# Construct: Enzyme: 20 nM GRK6, recombinant full-length GST-tagged human protein; GST
# Experiment summary: GRK6 assay, IC50 determination (8-point concentration-response)
# Assay type: biochemical
# Settings: Series 1 (Table 11); 20 nM GRK6, ATP 12 μM (Km), Peptide 216 1 μM, incubation 7 h
Could you please report measured IC50 for the items listed next?
Give bare numbers, in nM.

{"columns": ["Compound", "Test target", "Property measured", "Assay value"],
 "data": [
  ["O=C(O)CSc1nnc(-c2ccc(-c3c[nH]c4ccccc34)o2)[nH]1 [Compound 1-55]", "GRK6, recombinant full-length GST-tagged human protein (Homo sapiens, UniProt P43250)", "IC50", 563]
]}

Please go through the list and note IC50 for each compound.
1. N#Cc1c[nH]c2cc(-c3ccc(-c4nnc(SCC(=O)O)[nH]4)o3)ccc12 [Compound 1-33]
2. Cc1ccc(-c2ccc(-c3nnc(SCC(=O)O)[nH]3)o2)cc1Cl [Compound 1-37]

**Result**
332
359

Please go through the list and note IC50 for each compound.
1. O=C(O)CSc1nnc(-c2ccc(-c3ccc4sccc4c3)o2)[nH]1 [Compound 1-26]
2. O=C(O)CSc1nnc(-c2ccc(-c3cccc(OCc4ccc(Cl)c(C(F)(F)F)c4)c3)o2)[nH]1 [Compound 1-58]

**Result**
[285, 616]

###

# Test target: GRK6, recombinant full-length GST-tagged human protein (Homo sapiens, UniProt P43250)
# Construct: Enzyme: 20 nM GRK6, recombinant full-length GST-tagged human protein; GST
# Experiment summary: GRK6 assay, IC50 determination (8-point concentration-response)
# Format: biochemical
# Settings: Series 2 (Table 12); conditions as Example 18
# Description: The following assay conditions were used. Buffer: 50 mM TRIS-HCl, pH 7.5, 5 mM MgCl2, 2 mM DTT, 0.01% Triton X-100, 10 μM Na3VO4, 10 μM b-GP, 1% DMSO Enzyme: 20 nM GRK6, recombinant full-length GST-tagged human protein Peptide substrate (Peptide 216): 1 μM One hundred two compounds (1-1-1-102) were further characterized by determining IC50 values in a GRK6 assay. This screen has been previously described in WO 2013/063458, which is incorporated by reference in its entirety herein. […]
pIC50: −log10 of the molar value.
Lab note: compare pIC50 against 6. Equal or greater, write Fulfilled. Smaller, write Not fulfilled.

**Query** Given the entry O=C(O)CSc1cc(-c2ccc(-c3ccc(Cl)c(Cl)c3)s2)[nH]n1 [Compound 2-2] , answer whether its pIC50 meets or surpasses 6.
**Result** Fulfilled

**Query** Given the entry COc1ccc2cc(C#Cc3ccc(-c4cc(SCC(=O)O)n[nH]4)o3)ccc2c1 [Compound 2-5] , answer whether its pIC50 meets or surpasses 6.
**Result** Fulfilled

**Query** Given the entry COc1cc(Cl)cc(-c2ccc(-c3cc(SCC(=O)O)n[nH]3)o2)c1 [Compound 2-1] , answer whether its pIC50 meets or surpasses 6.
**Result** Fulfilled

**Query** Given the entry COc1cc(Cl)cc(-c2ccc(-c3cc(SCC(=O)O)n[nH]3)s2)c1 [Compound 2-4] , answer whether its pIC50 meets or surpasses 6.
**Result** Fulfilled

**Query** Given the entry O=C(O)CSc1cc(-c2ccccc2)[nH]n1 [Compound 2-12] , answer whether its pIC50 meets or surpasses 6.
**Result** Not fulfilled
